- study.target: cIAP1 BIR3 (Homo sapiens)
- Construct: covering amino acids 256 to 363; cIAP1 BIR3
- Sequence (Q13490 256-363): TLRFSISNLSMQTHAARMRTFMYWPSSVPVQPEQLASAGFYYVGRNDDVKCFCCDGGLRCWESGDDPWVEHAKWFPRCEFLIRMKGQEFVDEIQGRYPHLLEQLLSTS
- test.details: cIAP1 BIR3 binding assay (DELFIA), displacement of SMAC peptide
- experimental.parameters: GST-fusion BIR3 domain (aa 256 to 363) 10 nM, SMAC peptide 10 nM; activity of the (S)-isomers
Returns: string. Value is MET if measured IC50 is below 2 nM, and NOT MET if it is greater than or equal to it.

CNC(C)C(=O)Nc1ccc(-c2c(C)nc3ccccn23)c(C#Cc2ccc3c(OC)nccc3c2)n1 (stereo not shown); MET
CNC(C)C(=O)Nc1ccc(-c2c(C)nc3ccccn23)c(C#Cc2ccnc3c(F)cccc23)n1 (stereo not shown); MET
CNC(C)C(=O)Nc1ccc(-c2cnn3ccccc23)c(C#Cc2ccccc2)n1 (stereo not shown); NOT MET
CNC(C)C(=O)Nc1ccc(-c2c(C)nc3ccccn23)c(C#Cc2cc3ccncc3s2)n1 (stereo not shown); MET
CNC(C)C(=O)Nc1ccc(-c2c(C)nc3ccccn23)c(C#Cc2ccc(C(N)=O)cc2)n1 (stereo not shown); MET
CNC(C)C(=O)Nc1ccc(-c2c(-c3ccncc3)nc3cc(C)ccn23)c(C#Cc2ccc(-c3ccon3)cc2)n1 (stereo not shown); MET
CNC(C)C(=O)Nc1ccc(-c2c(-c3ccncc3)nc3cc(C)ccn23)c(C#Cc2ccc3nc(C)ccc3c2)n1 (stereo not shown); MET
CNC(C)C(=O)Nc1ccc(-c2c(-c3ccncc3)nc3cc(C)ccn23)c(C#Cc2ccc3c(c2)OCC(=O)N3C)n1 (stereo not shown); MET
CNC(C)C(=O)Nc1ccc(-c2cnc(C(=O)OC)nc2)c(C#Cc2ccccc2)n1 (stereo not shown); NOT MET
CNC(C)C(=O)Nc1ccc(-c2c(C)nc3ccccn23)c(C#Cc2cc3ccccc3o2)n1 (stereo not shown); MET
CC(N)C(=O)Nc1ccc(-c2cccc(C#N)c2)c(C#Cc2ccccc2)n1 (stereo not shown); NOT MET
Cc1cc(C)cc(C#Cc2nc(NC(=O)C(C)N)cc3ccccc23)c1 (stereo not shown); NOT MET
CNC(=O)c1ccc(-c2ccc(NC(=O)C(C)NC)nc2C#Cc2ccccc2)cn1 (stereo not shown); NOT MET
CNC(C)C(=O)Nc1ccc(-c2ccc(N3CCCC3)nc2)c(C#Cc2ccccc2)n1 (stereo not shown); NOT MET
